target: bovine milk xanthine oxidase (Bos taurus, UniProt P80457); experiment: Capacity to sustain oxidation of xanthine by xanthine oxidase in the absence of oxygen, spectrophotometric; format: biochemical; design: host or cells: bovine milk; details: 50 μM hydroxyguanidine, 50 μM xanthine, 0.05 units/ml xanthine oxidase, anaerobic, pH 7.5, 20° C., blank subtracted
Sequence (P80457 whole entry): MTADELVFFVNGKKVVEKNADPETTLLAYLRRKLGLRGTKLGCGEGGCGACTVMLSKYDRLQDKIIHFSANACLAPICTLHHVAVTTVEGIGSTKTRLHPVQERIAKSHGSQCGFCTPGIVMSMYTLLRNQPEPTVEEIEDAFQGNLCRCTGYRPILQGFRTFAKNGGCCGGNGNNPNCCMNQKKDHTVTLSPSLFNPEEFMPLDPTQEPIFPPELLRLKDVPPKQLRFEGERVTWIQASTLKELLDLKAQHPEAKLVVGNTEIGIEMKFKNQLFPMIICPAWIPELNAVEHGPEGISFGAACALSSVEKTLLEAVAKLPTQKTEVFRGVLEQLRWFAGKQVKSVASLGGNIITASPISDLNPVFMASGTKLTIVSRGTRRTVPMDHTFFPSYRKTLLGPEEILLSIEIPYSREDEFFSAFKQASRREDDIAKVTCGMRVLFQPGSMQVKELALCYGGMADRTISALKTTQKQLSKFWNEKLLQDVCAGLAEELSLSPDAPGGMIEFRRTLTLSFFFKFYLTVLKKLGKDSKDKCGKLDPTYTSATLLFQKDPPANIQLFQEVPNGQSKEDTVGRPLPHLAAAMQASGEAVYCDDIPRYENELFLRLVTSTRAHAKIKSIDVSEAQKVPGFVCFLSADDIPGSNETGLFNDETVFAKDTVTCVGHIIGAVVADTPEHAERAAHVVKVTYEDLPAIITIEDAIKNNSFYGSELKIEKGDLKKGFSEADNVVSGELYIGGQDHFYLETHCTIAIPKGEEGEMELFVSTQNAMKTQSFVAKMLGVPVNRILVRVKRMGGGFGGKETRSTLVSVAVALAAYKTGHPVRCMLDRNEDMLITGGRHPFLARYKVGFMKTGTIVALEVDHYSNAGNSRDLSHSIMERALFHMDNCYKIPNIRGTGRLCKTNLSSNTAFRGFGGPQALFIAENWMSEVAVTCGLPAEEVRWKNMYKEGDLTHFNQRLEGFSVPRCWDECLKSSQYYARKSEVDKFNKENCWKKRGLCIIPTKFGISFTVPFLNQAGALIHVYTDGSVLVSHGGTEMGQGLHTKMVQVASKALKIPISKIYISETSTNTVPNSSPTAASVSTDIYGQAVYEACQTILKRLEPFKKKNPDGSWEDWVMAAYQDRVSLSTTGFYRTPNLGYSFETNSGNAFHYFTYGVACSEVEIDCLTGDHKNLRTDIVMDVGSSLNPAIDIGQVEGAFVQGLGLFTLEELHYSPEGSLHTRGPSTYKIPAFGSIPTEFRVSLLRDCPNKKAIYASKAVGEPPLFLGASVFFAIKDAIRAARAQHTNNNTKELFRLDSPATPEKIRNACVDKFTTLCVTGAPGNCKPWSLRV
Counter-ions that a name gives are not always drawn.
value kind: V = 1000 × (Δabs 295 nm) min^−1 (initial rate of the support of the oxidation of xanthine)

Measured V = 1000 × (Δabs 295 nm) min^−1 (initial rate of the support of the oxidation of xanthine) of N=C(NO)N/N=C1\C(=O)Nc2ccc(F)cc21 [LT5, reference compound] : 50 1000 × (Δabs 295 nm) min^−1

Given item COc1ccc(C=NNC(=N)NO)cc1Br [EN10, tosylate] , the value recorded as its V = 1000 × (Δabs 295 nm) min^−1 (initial rate of the support of the oxidation of xanthine) is 22 1000 × (Δabs 295 nm) min^−1

The compound COc1ccc(/C=N/NC(=N)NO)c(OC)c1C [DWO2, reference compound] showed V = 1000 × (Δabs 295 nm) min^−1 (initial rate of the support of the oxidation of xanthine) equal to 30.7 1000 × (Δabs 295 nm) min^−1
